All values here come from ChEMBL document CHEMBL1201862.

system-tested: UniProt:Q9GZR1
Sequence (Q9GZR1 whole entry): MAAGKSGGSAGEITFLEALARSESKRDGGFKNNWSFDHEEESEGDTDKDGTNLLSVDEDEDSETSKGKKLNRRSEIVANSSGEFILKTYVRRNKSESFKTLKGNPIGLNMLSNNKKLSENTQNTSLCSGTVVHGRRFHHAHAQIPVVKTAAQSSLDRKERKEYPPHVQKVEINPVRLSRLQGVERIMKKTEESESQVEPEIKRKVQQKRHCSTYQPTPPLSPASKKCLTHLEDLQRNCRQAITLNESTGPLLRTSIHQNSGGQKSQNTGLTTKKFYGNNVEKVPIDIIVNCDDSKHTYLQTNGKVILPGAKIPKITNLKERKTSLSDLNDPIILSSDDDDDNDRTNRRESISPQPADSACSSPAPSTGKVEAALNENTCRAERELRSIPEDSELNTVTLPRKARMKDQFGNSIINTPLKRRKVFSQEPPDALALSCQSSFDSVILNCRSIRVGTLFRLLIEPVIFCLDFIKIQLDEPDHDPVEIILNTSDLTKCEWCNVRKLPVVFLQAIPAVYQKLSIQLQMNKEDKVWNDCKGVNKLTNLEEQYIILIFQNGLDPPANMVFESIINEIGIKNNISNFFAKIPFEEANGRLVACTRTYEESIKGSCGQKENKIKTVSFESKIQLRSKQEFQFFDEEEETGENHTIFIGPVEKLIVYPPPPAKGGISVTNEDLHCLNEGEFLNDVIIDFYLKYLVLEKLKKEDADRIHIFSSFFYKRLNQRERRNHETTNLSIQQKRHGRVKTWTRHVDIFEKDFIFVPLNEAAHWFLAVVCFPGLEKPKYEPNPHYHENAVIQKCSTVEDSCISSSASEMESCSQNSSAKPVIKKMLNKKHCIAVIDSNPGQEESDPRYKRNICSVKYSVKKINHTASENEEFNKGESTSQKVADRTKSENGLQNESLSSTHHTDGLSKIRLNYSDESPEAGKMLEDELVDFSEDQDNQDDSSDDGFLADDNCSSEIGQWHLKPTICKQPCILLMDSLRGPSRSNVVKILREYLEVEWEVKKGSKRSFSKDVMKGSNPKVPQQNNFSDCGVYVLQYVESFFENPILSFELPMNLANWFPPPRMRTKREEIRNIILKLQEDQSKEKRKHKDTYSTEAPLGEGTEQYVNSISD
Type: functional
The source made the active and inactive calls.
The reply should name one outcome from class 1 (active), class 0 (inactive)

Sample answers from the record:
compound: Cc1ccc(C(=O)c2cc3ccccc3o2)cc1C
system-tested: UniProt:Q9GZR1
label: class 1
//
compound: O=C(Nc1ccc2ncccc2c1)c1cccc(Br)c1
system-tested: UniProt:Q9GZR1
label: class 1
//
compound: O=C(O)C(Oc1ccc2cc(-c3ccc(Cl)cc3)c(=O)oc2c1)c1ccccc1 (configuration not stated)
system-tested: UniProt:Q9GZR1
label: class 1

input: Please share the test call associated with O=C(COC(=O)c1ccc([N+](=O)[O-])s1)NCc1ccc(F)cc1 .
output: class 1

input: Next: S=C(Nc1ccc(Cl)cc1)Nc1cccc2cnccc12
output: class 1

input: Moving on to CN(C)c1ccc(/C=N/Nc2nc3ccccc3o2)cc1
output: class 1

input: // query: CC(=O)Nc1ccc(-c2nc3cc(Cl)ccc3o2)cc1
output: class 0
